Tested on: T cells in PBMC of H3N2 (A/Wisconsin/67/05) challenge study subjects
Format: cell-based, human
applied.conditions: subjects responding to the peptide at baseline, of 8 subjects with peptides identified
property.name: Number positive
Returns: the value as a bare number; no unit string appended.

Query for T cells in PBMC of H3N2 (A/Wisconsin/67/05) challenge study subjects: what Number positive does the record show for KLSDHEGRLIQNSLTIEK [NP08] ? 1

Query for T cells in PBMC of H3N2 (A/Wisconsin/67/05) challenge study subjects: what Number positive does the record show for IKHENRMVLASTTAKAM (Influenza A virus) [Peptide M25, synthetic peptide of H3N2 influenza A M protein, amino acid position 173-189] ? 1

Query for T cells in PBMC of H3N2 (A/Wisconsin/67/05) challenge study subjects: what Number positive does the record show for LKREITFHKAKEIALSY [Peptide M15] ? 3

Query for T cells in PBMC of H3N2 (A/Wisconsin/67/05) challenge study subjects: what Number positive does the record show for EIRASVGKMIDGIGRFYI [NP05] ? 2

Query for T cells in PBMC of H3N2 (A/Wisconsin/67/05) challenge study subjects: what Number positive does the record show for GQTSVQPTFSVQRNLPF [NP57] ? 1

Query for T cells in PBMC of H3N2 (A/Wisconsin/67/05) challenge study subjects: what Number positive does the record show for SNLNDATYQRTRALVR (Influenza A virus) [NP20, synthetic peptide of H3N2 influenza A NP protein, amino acid position 141-156] ? 1

Query for T cells in PBMC of H3N2 (A/Wisconsin/67/05) challenge study subjects: what Number positive does the record show for TYQRTRAVLRTGMDPRM (TYQRTRALVRTGMDPRM; Influenza A virus) [NP21, synthetic peptide of H3N2 influenza A NP protein, amino acid position 147-163] ? 1

Query for T cells in PBMC of H3N2 (A/Wisconsin/67/05) challenge study subjects: what Number positive does the record show for KFQTAAQRAMVDQVRESR (Influenza A virus) [NP32, synthetic peptide of H3N2 influenza A NP protein, amino acid position 229-246] ? 1

Query for T cells in PBMC of H3N2 (A/Wisconsin/67/05) challenge study subjects: what Number positive does the record show for TFSVQRSLPFEKSTIMAA [NP58] ? 1

Query for T cells in PBMC of H3N2 (A/Wisconsin/67/05) challenge study subjects: what Number positive does the record show for HRSHRQMVATTNPLIKH [Peptide M23] ? 1

Query for T cells in PBMC of H3N2 (A/Wisconsin/67/05) challenge study subjects: what Number positive does the record show for PIYRRVDGKWMRELVLY [NP14] ? 2

Query for T cells in PBMC of H3N2 (A/Wisconsin/67/05) challenge study subjects: what Number positive does the record show for GKWMRELVLYDKEEIRRI [NP15] ? 2
